We begin with a simple list: items and their reported T/C.
- System: L1210 leukemia ip in BDF1 mice, survival T/C
- assay-summary: NCI In Vivo Anticancer Drug Screen. Data for tumor model L1210 Leukemia (intraperitoneal) in B6D2F1 (BDF1) mice
- recorded-conditions: endpoint: mean survival time; dose: 200.0 mg/kg/injection; schedule: Q04DX002 (ip); vehicle: saline; higher = longer survival
Toxic doses and inconclusive results are not listed.

{"molecule": "CC(C)(C)C1=CC(=O)C(N=[N+]=[N-])=CC1=O", "value-reported": "115 % of control"}
{"molecule": "CCN(/C=C1\\CCOC1=O)CC", "value-reported": "97 % of control"}
{"molecule": "O=[N+]([O-])c1ccccc1N1N=NC2CC/C(=C\\c3ccc(Cl)cc3)C21N1CCOCC1 (stereo unspecified)", "value-reported": "89 % of control"}
{"molecule": "CCCCCCCC(=O)N1C(C)CCCC1C (stereo unspecified)", "value-reported": "111 % of control"}
{"molecule": "C=C1CCOC1=O", "value-reported": "108 % of control"}

Query block: Give T/C for CC(=O)CCC(=O)O
Result block: 100 % of control

---

We begin with a simple list: items and their reported T/C.
- Tested on: L1210 leukemia ip in BDF1 mice, survival T/C
- assay-summary: NCI In Vivo Anticancer Drug Screen. Data for tumor model L1210 Leukemia (intraperitoneal) in B6D2F1 (BDF1) mice
- recorded-conditions: endpoint: mean survival time; dose: 150.0 mg/kg/injection; schedule: Q01DX001 (ip); vehicle: carboxymethylcellulose (CMC); higher = longer survival
Toxic doses and inconclusive results are not listed.

{"molecule": "CC(C)CC1NC(=O)C(C(C)C)NC(=O)CC(C)COC(=O)C(CC(C)C)N(C)C(=O)C(C(C)C)NC(=O)C(C(C)C)OC1=O (centres undefined)", "experimental-target": "L1210 leukemia ip in BDF1 mice, survival T/C", "T/C": "96 % of control"}

Query block: Give T/C for Nc1nc(N)c2[nH]c(CO)nc2n1
Result block: 97 % of control

Query block: Give T/C for O=NN(C(=O)Nc1ccccc1)C1CCCCC1
Result block: 102 % of control

Query block: Give T/C for OC1CCC2NCCCC2C1 (centres undefined)
Result block: 103 % of control

---

- System: L1210 leukemia ip in BDF1 mice, survival T/C
- assay-summary: NCI In Vivo Anticancer Drug Screen. Data for tumor model L1210 Leukemia (intraperitoneal) in B6D2F1 (BDF1) mice
- recorded-conditions: endpoint: mean survival time; dose: 400.0 mg/kg/injection; schedule: Q04DX003 (ip); vehicle: other; higher = longer survival
Toxic doses and inconclusive results are not listed.
result-type: T/C

For orientation, consider the following solved cases.
{"molecule": "COc1cc2ccc(C(N)=O)cc2cc1OC", "experimental-target": "L1210 leukemia ip in BDF1 mice, survival T/C", "T/C": "103 % of control"}
{"molecule": "COc1cc([N+](=O)[O-])ccc1C", "experimental-target": "L1210 leukemia ip in BDF1 mice, survival T/C", "T/C": "88 % of control"}
{"molecule": "CC1CC=CCC1COC(OCC1CC=CCC1C)C1CC=CCC1C (configuration not stated)", "experimental-target": "L1210 leukemia ip in BDF1 mice, survival T/C", "T/C": "96 % of control"}
{"molecule": "CN(C)S(=O)(=O)c1ccc(NC(=O)C(Cl)(Cl)Cl)cc1", "experimental-target": "L1210 leukemia ip in BDF1 mice, survival T/C", "T/C": "93 % of control"}
{"molecule": "CC(C)CCCc1c[nH]c(=O)[nH]c1=O", "experimental-target": "L1210 leukemia ip in BDF1 mice, survival T/C", "T/C": "117 % of control"}
{"molecule": "Cn1cnc(N)c1S(=O)(=O)Nc1cccc2ccccc12", "experimental-target": "L1210 leukemia ip in BDF1 mice, survival T/C", "T/C": "101 % of control"}

Would you kindly look at the next entry?
Query block: Give T/C for CC(C(=O)O)C(NC(=O)OCc1ccccc1)C(=O)O (configuration not stated)
Result block: 98 % of control

Values compiled from PubChem BioAssay AID248.
